Tested on: RPMI-8226 leukemia
EXPERIMENT NOTES: NCI tumour cell line growth inhibition, 48 h

{"COMPOUND": "CCCCCCc1cc2cc(-c3cn4c(n3)sc3ccccc34)c(=O)oc2cc1O", "UNITS OF MEASURE": "µM", "VALUE COMPARATOR": ">", "TGI": 100}
{"COMPOUND": "CN(C)c1cccc(OC(=O)NCCCl)c1", "UNITS OF MEASURE": "µM", "VALUE COMPARATOR": ">", "TGI": 100}
{"COMPOUND": "COCCNCc1ccc(-c2cc3nccc(Oc4ccc(NC(=O)C5(C(=O)Nc6ccc(F)cc6)CC5)cc4F)c3s2)nc1", "UNITS OF MEASURE": "µM", "VALUE COMPARATOR": "=", "TGI": 5.07}
{"COMPOUND": "Nc1nc(Cl)c(N)c(NCC2(CO)CCC(CCc3ccccc3)C2)n1 (stereo not drawn)", "UNITS OF MEASURE": "µM", "VALUE COMPARATOR": "=", "TGI": 47.7}
{"COMPOUND": "COc1ccc(CCc2ccc3c(c2)OCO3)cc1", "UNITS OF MEASURE": "µM", "VALUE COMPARATOR": ">", "TGI": 100}
{"COMPOUND": "CNn1c(-c2ccc(C)cc2)n[nH]c1=O", "UNITS OF MEASURE": "µM", "VALUE COMPARATOR": ">", "TGI": 100}
{"COMPOUND": "Cc1nc2sc(C(=O)Nc3ccccc3)c(N)c2cc1C(O)c1ccccc1 (stereo not drawn)", "UNITS OF MEASURE": "µM", "VALUE COMPARATOR": "=", "TGI": 11.7}
{"COMPOUND": "CC(Cc1ccccc1)N(C)Cc1nc(C2CCC([N+](=O)[O-])O2)no1 (stereo not drawn)", "UNITS OF MEASURE": "µM", "VALUE COMPARATOR": "=", "TGI": 72.8}

----------
Tested on: MOLT-4 leukemia
EXPERIMENT NOTES: NCI tumour cell line growth inhibition, 48 h
RESULT TYPE: TGI

{"COMPOUND": "Cc1cccc2c1Sc1ccccc1C2NC(=O)CN(C)C (stereo not given)", "RESULT TYPE": "TGI", "DATA VALUE": "> 100 µM"}
{"COMPOUND": "C/C(O)=C(\\C=NC(=S)c1cccnc1)C(=O)Nc1ccccc1C", "RESULT TYPE": "TGI", "DATA VALUE": "> 100 µM"}
{"COMPOUND": "CSc1ccc(NC(=O)Nc2cc(C)ccn2)cc1", "RESULT TYPE": "TGI", "DATA VALUE": "> 100 µM"}
{"COMPOUND": "COc1cccc(/C=C2\\SC(=S)N(/C=C3\\C(=O)Oc4ccccc4C3=O)C2=O)c1O", "RESULT TYPE": "TGI", "DATA VALUE": "> 100 µM"}
{"COMPOUND": "Cc1ccc2c(=O)c(-c3nnc(NC4CCCCC4)s3)c[nH]c2n1", "RESULT TYPE": "TGI", "DATA VALUE": "> 100 µM"}

----------
In this section we review reported GI50 values for a set of compounds.
Test system: ACHN renal
EXPERIMENT NOTES: NCI tumour cell line growth inhibition, 48 h

{"COMPOUND STRUCTURE": "O=C(N=Nc1c(Cl)c(O)c2ccccc2c1O)C(=O)Nc1cccc(C(F)(F)F)c1", "GI50": "1920 nM"}
{"COMPOUND STRUCTURE": "CSc1nnc(-c2cc3c([nH]c4ccccc43)c(-c3cccc(O)c3)n2)n1-c1ccc(C)cc1", "GI50": "2110 nM"}
{"COMPOUND STRUCTURE": "CC(=O)O[C@@H]1C2=C(C)C3(CC3)[C@@](C)(O)C(=O)C2=C[C@@]1(C)CO", "GI50": "484 nM"}

----------
Tested on: HCC-2998 colon
EXPERIMENT NOTES: NCI tumour cell line growth inhibition, 48 h
In this section we review reported TGI values for a set of compounds.
RESULT TYPE: TGI

{"COMPOUND": "c1ccc2c(c1)SP1Sc3ccccc3P21 (centres undefined)", "RESULT TYPE": "TGI", "DATA VALUE": "> 100 µM"}
{"COMPOUND": "COc1cccc(/C=C2\\SC(=S)N(/C=C3\\C(=O)Oc4ccccc4C3=O)C2=O)c1O", "RESULT TYPE": "TGI", "DATA VALUE": "87 µM"}
{"COMPOUND": "NC(=O)C(=O)C1C(=O)N(c2ccccc2)N=C1N (centres undefined)", "RESULT TYPE": "TGI", "DATA VALUE": "> 100 µM"}
{"COMPOUND": "CC(NP(=O)(c1ccccc1)c1ccccc1)c1ccccc1 (centres undefined)", "RESULT TYPE": "TGI", "DATA VALUE": "> 100 µM"}

----------
In this section we review reported TGI values for a set of compounds.
System: OVCAR-4 ovarian
EXPERIMENT NOTES: NCI tumour cell line growth inhibition, 48 h
RESULT TYPE: TGI

{"COMPOUND": "NNC(=O)c1cc([N+](=O)[O-])ccc1NC(=O)C12CC3CC(CC(C3)C1)C2", "TARGET ENTITY": "OVCAR-4 ovarian", "DATA VALUE": "23 µM"}
{"COMPOUND": "CC(=O)OC1CC(OC2C(O)CC(OC3C(O)CC(OC4CCC5(C)C(CCC6C5CCC5(C)C(C7=CC(=O)OC7)CCC65O)C4)OC3C)OC2C)OC(C)C1OC1OC(CO)C(O)C(O)C1O (stereo not drawn)", "TARGET ENTITY": "OVCAR-4 ovarian", "DATA VALUE": "0.162 µM"}
{"COMPOUND": "COC(=O)CSc1nc2[nH]c(SC)c(C(N)=O)c2c(=O)n1-c1ccccc1", "TARGET ENTITY": "OVCAR-4 ovarian", "DATA VALUE": "> 10 µM"}
{"COMPOUND": "CC(=Nc1cccc(Cl)c1)c1ccncc1", "TARGET ENTITY": "OVCAR-4 ovarian", "DATA VALUE": "> 100 µM"}
{"COMPOUND": "[Cl][Hg][c]1ccc2ccccc2c1", "TARGET ENTITY": "OVCAR-4 ovarian", "DATA VALUE": "6.71 µM"}
{"COMPOUND": "CC(C)(O)CCc1cccc(C(=O)c2cnn(-c3ccc(F)cc3)c2N)c1", "TARGET ENTITY": "OVCAR-4 ovarian", "DATA VALUE": "> 25 µM"}
{"COMPOUND": "CN(C)c1cccc(OC(=O)NCCCl)c1", "TARGET ENTITY": "OVCAR-4 ovarian", "DATA VALUE": "> 100 µM"}
{"COMPOUND": "C[C@@]1(C(=O)O)CCC[C@]2(C)C1CC[C@]13C[C@@](O)(CO)[C@](O)(CC[C@]12O)C3 (stereo partly drawn)", "TARGET ENTITY": "OVCAR-4 ovarian", "DATA VALUE": "> 100 µM"}
{"COMPOUND": "CC(C)(C)[Si](C)(C)OCCc1ccccc1C1CC2(S(=O)(=O)c3ccccc3)ON1CC2S(=O)(=O)c1ccccc1 (stereo not drawn)", "TARGET ENTITY": "OVCAR-4 ovarian", "DATA VALUE": "> 100 µM"}
{"COMPOUND": "C=C1C(=O)O[C@@H]2CC(CO)=C([C@@H](C)CCCO)[C@@H](OC(=O)/C(C)=C\\C)[C@H]12", "TARGET ENTITY": "OVCAR-4 ovarian", "DATA VALUE": "> 84.9 µM"}
{"COMPOUND": "N#CC(C(=N/O)/C(=N\\O)C(C#N)c1ccccc1)c1ccccc1 (stereo not drawn)", "TARGET ENTITY": "OVCAR-4 ovarian", "DATA VALUE": "> 100 µM"}
{"COMPOUND": "O=[N+]([O-])c1cccc(S(=O)(=O)N/N=C/c2cc(I)cc([N+](=O)[O-])c2O)c1", "TARGET ENTITY": "OVCAR-4 ovarian", "DATA VALUE": "> 100 µM"}
{"COMPOUND": "COC(=O)[C@]12C3=C(O)C(=O)C[C@H]1OC[C@H]2C=CC3", "TARGET ENTITY": "OVCAR-4 ovarian", "DATA VALUE": "> 100 µM"}

----------
In this section we review reported TGI values for a set of compounds.
Test system: OVCAR-5 ovarian
EXPERIMENT NOTES: NCI tumour cell line growth inhibition, 48 h

{"COMPOUND": "CC(C)(C)n1c(=O)n(-c2ccccc2)n(C(C)(C)C)c1=O", "TGI": "> 100 µM"}
{"COMPOUND": "CSc1nnc(-c2cc3c([nH]c4ccccc43)c(-c3cccc(O)c3)n2)n1-c1ccc(C)cc1", "TGI": "70.1 µM"}
{"COMPOUND": "Cc1nc2sc(C(=O)Nc3ccccc3)c(N)c2cc1C(O)c1ccccc1 (stereo not drawn)", "TGI": "> 88.1 µM"}
{"COMPOUND": "CC(=O)c1c2c(cc3c1CC1(Cc4cc5c(cc4C1)C(=O)CCC5)C3)CCCC2 (stereo not drawn)", "TGI": "> 100 µM"}
{"COMPOUND": "O=C(N/N=C/c1cc(Cl)ccc1O)c1ccccc1Nc1ccnc(C(F)(F)F)c1", "TGI": "25.6 µM"}
{"COMPOUND": "C/C(O)=C(\\C=NC(=S)c1cccnc1)C(=O)Nc1ccccc1C", "TGI": "> 100 µM"}
{"COMPOUND": "CN(C(=S)Cc1ccc(Cl)c(Cl)c1)C1CCCC[C@@H]1N1CCCC1 (stereo partly drawn)", "TGI": "> 100 µM"}
{"COMPOUND": "CC(C)(C)C(=O)c1c(C(F)(F)F)n([O-])c2cc(Cl)c(Cl)cc2[n+]1=O", "TGI": "2.19 µM"}
{"COMPOUND": "NNC(=O)CCc1ccc2ccc3ccccc3c2c1", "TGI": "> 100 µM"}
{"COMPOUND": "COc1ccc2cc(CN3CCC(C4CCN(Cc5ccc6cc(OC)ccc6c5)CC4)CC3)ccc2c1", "TGI": "> 76.7 µM"}
{"COMPOUND": "CNCC(=O)NC(CO)C(=O)NC(CO)C(=O)NC1C(C(N)=O)OC(n2ccc(N)nc2=O)C(O)C1O (stereo not drawn)", "TGI": "> 50 µg/mL"}
{"COMPOUND": "O=c1oc2ccccc2c(O)c1C(c1cccc(C(c2c(O)c3ccccc3oc2=O)c2c(O)c3ccccc3oc2=O)c1)c1c(O)c2ccccc2oc1=O", "TGI": "> 100 µM"}
{"COMPOUND": "O=C(/C=C/c1ccccc1)c1cc(C(=O)/C=C/c2ccccc2)c(O)cc1O", "TGI": "> 100 µM"}
{"COMPOUND": "Cc1ccc(N=Nc2c(O)ccc3n[nH]nc23)cc1", "TGI": "> 100 µM"}
{"COMPOUND": "CC[C@@H]([C@H](O)c1ccccc1Cl)[N+](=O)[O-]", "TGI": "> 100 µM"}
{"COMPOUND": "COC1(OC)N=C(N)C2(C#N)C(C)=C3NCN(C)N=C3C12C#N (stereo not drawn)", "TGI": "> 100 µM"}
{"COMPOUND": "Cc1ccc2c(n1)NC(=O)C(Cc1ccccc1)(N=[N+]=[N-])C2=O (stereo not drawn)", "TGI": "> 100 µM"}
{"COMPOUND": "O=c1[nH]c2ccc(Cl)cc2o1", "TGI": "> 100 µM"}
